Data provenance is ChEMBL document CHEMBL1201862.

# Tested on: MCF7
# PROTOCOL_DESCRIPTION: NCI tumour cell line growth inhibition, 48 h
Activity calls are given as the source filed them. No stated cut-off is given here; in the data, active = GI50 up to about 1.1 µM and inactive = higher.
Select the correct class. Options are true (1) for active, false (0) for inactive and nothing else.

Before answering, review these 5 worked examples.
Nc1ccc2ccc(-c3ccc[nH]3)nc2n1: false (0)
CCCCCCCCCCCCCCCCNc1nc(=O)n(C2OC(C)C(O)C2O)cc1F (stereo not given): false (0)
COc1ccc(N2C(=O)CC(c3c[nH]c4ncccc34)C2=O)cc1 (stereo not given): false (0)
O=C(c1cccs1)N(C(=O)N1CCN(c2ccccc2)CC1)S(=O)(=O)c1ccccc1: false (0)
O=c1[nH]nc(-c2ccccc2)n1/N=C/c1ccncc1: false (0)

Tell me the assay call for C=C(C)[C@H]1C=C[C@@H](OC(C)=O)[C@@]2(COC(C)=O)[C@H](OC(=O)CCC)[C@H]3[C@@H](OC(C)=O)[C@@H](C)C[C@]3(O)C(=O)[C@@](C)(OC(C)=O)[C@H]12 please.
false (0)

Call for entry C/C=C\C(CC(=O)NCCC1CN(S(=O)(=O)c2ccc(C)cc2)c2ccccc21)CC(=O)OC (stereo not given) :
false (0)

Field: outcome | Entry: CC(C)(C)OC(=O)NCCC1SC2C=CC1C2 (stereo not given)
false (0)

GET /call?item= CN1CC2=C(OC(N)=C(C#N)C2c2cccs2)/C(=C/c2cccs2)C1 (stereo not given) returns the recorded outcome of this test.
true (1)

For C=CC(Br)(CBr)CCC1OC1(C)C (stereo not given) , what call appears in the results of this test?
false (0)
